# experimentalTarget: neuronal nicotinic cholinergic channel receptors (Rattus norvegicus, UniProt P09483+P12390)
# Sequence (P09483 31-630): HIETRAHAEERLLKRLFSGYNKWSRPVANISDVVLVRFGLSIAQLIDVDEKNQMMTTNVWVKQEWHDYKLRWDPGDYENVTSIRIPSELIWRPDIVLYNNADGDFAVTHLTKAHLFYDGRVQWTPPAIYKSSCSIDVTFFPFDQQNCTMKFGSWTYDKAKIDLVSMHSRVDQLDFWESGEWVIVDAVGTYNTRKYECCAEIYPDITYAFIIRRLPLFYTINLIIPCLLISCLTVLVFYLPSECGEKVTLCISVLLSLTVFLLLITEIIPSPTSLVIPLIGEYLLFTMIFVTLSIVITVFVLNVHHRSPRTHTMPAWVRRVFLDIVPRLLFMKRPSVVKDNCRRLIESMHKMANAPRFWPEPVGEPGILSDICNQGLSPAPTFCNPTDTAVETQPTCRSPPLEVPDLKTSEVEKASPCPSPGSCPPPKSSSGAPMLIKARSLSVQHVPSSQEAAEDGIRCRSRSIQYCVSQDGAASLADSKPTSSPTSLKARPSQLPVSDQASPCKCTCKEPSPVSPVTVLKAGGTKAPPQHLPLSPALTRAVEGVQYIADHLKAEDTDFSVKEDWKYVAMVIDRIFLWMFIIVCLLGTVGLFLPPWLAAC
# Sequence (P12390 25-500): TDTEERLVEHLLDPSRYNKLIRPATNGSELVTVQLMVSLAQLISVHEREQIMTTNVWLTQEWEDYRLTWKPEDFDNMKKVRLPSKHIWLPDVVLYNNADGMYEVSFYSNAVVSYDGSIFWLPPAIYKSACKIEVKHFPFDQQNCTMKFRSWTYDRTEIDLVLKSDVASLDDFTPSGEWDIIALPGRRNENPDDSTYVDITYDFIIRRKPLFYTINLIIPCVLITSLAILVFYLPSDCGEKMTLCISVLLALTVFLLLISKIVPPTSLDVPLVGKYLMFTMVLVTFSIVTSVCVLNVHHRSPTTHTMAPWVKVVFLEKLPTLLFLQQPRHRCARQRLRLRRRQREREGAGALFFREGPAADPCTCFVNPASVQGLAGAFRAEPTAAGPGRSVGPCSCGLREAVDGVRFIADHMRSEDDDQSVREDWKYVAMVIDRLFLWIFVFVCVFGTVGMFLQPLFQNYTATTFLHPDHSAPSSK
# measurementSetup: read-out: Binding Ki
Where a name gives a salt, the structure may show the parent alone.
valueType: Ki (nM)
Just the number in nM, nothing appended.

### Prompt Can you look up the measured Ki of CN1CC[C@@H]1COc1cncc(-c2ccsc2)c1 [Example 91, Dihydrochloride] for me?
### Response 1.84

* * *

# experimentalTarget: neuronal nicotinic cholinergic channels in IMR-32 cells (Homo sapiens, UniProt P30926+P32297)
# experimentSummary: 86Rb+ efflux in IMR-32 cells (activation, or inhibition of efflux elicited by (S)-nicotine)
# Type: cell-based
# measurementSetup: IMR-32; inhibition of the efflux elicited by 100 μM (S)-nicotine; single dose 1 μM
Where a name gives a salt, the structure may show the parent alone.
Give inhibition at 1 µM for every item shown.
Just the number in %, nothing appended.

### Prompt Can you look up the measured inhibition at 1 µM of CN1CCC[C@H]1COc1cncc(C#Cc2ccccc2)c1.Cl.Cl [Example 40, Dihydrochloride] for me?
### Response 30

### Prompt Can you look up the measured inhibition at 1 µM of CN1CCC[C@H]1COc1cncc(-c2ccc(Cl)cc2Cl)c1.Cl.Cl [Example 39, Dihydrochloride] for me?
### Response 52

### Prompt Can you look up the measured inhibition at 1 µM of CN1CCC[C@H]1COc1cncc(-c2cccc([N+](=O)[O-])c2)c1 [Example 1, Dihydrochloride] for me?
### Response 13

### Prompt Can you look up the measured inhibition at 1 µM of Cc1ccc(C#Cc2cncc(OC[C@@H]3CCCN3C)c2)cc1.Cl.Cl [Example 48, Dihydrochloride] for me?
### Response 40

### Prompt Can you look up the measured inhibition at 1 µM of CN1CCC[C@H]1COc1cnc(Cl)c(-c2ccccc2)c1.Cl.Cl [Example 26, Dihydrochloride] for me?
### Response 47

### Prompt Can you look up the measured inhibition at 1 µM of CN1CCC[C@H]1COc1cncc(C#CC(C)(C)C)c1 [Example 47, Dihydrochloride] for me?
### Response 66

### Prompt Can you look up the measured inhibition at 1 µM of Cc1ccccc1-c1cncc(OC[C@@H]2CCCN2C)c1 [Example 45, Dihydrochloride] for me?
### Response 41

### Prompt Can you look up the measured inhibition at 1 µM of CN1CCC[C@H]1COc1cncc(-c2ccccc2C=O)c1 [Example 44, Dihydrochloride] for me?
### Response 30
